Data provenance is patent US8722683B2.

molecular target: 5-HT2A receptor (Homo sapiens (Human), UniProt P28223); test: Radioligand binding ([3H]-ketanserin) to cloned 5-HT2A receptor expressed in HEK-293 EBNA cells; details: human 5-HT2A receptor, HEK293 EBNA membranes, 1.1 nM [3H]-ketanserin
Sequence (P28223 whole entry): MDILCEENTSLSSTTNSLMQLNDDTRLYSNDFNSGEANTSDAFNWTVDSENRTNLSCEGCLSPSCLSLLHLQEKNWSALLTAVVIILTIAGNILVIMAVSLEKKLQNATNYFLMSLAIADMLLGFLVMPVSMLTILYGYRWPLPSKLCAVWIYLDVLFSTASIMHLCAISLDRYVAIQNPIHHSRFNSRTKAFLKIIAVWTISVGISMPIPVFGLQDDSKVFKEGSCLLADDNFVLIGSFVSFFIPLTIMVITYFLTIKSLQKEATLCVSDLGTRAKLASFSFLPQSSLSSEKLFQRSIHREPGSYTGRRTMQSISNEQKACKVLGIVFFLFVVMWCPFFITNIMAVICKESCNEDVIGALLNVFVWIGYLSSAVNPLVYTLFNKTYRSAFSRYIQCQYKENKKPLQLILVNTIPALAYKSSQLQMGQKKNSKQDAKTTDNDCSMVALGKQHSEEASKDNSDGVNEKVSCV
pKi: −log10 of the molar value.
Listed molecules paired with reported pKi
measured property: pKi

INSERT INTO measurements (molecule, endpoint_value) VALUES
  ('[2H]C1([2H])Oc2cccc(N3CCN(CC[C@H]4CC[C@H](NC(=O)C[C@H]5COCCO5)CC4)CC3)c2O1 [Example 78]', 7.87),
  ('O=C(C[C@H]1COCCO1)N[C@H]1CC[C@H](CCN2CCN(c3cccc4c3OCO4)CC2)CC1 (single isomer, unassigned) [Example 4]', 8.11),
  ('O=C(C[C@@H]1COCCO1)N[C@H]1CC[C@H](CCN2CCN(c3cccc4c3OCO4)CC2)CC1 (single isomer, unassigned) [Example 5]', 7.91);

* * *

Target: D2 receptor (Homo sapiens (Human), UniProt P14416)
Sequence (P14416 whole entry): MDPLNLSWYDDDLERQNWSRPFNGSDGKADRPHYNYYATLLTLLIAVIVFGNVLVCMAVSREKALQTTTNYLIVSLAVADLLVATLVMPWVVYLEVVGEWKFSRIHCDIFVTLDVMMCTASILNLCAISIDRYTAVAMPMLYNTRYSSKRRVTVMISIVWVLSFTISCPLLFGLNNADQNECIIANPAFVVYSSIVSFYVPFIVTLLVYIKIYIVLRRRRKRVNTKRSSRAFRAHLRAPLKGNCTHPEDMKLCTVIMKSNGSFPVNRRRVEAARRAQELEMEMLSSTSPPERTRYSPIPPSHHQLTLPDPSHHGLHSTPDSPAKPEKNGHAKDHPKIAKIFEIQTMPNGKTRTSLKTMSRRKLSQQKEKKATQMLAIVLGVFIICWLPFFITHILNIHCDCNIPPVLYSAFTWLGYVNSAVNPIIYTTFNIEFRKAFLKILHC
Assay: Radioligand binding ([3H]-spiperone) to cloned D2 receptor expressed in HEK-293 EBNA cells
Conditions: HEK293 EBNA membranes, 0.7 nM [3H]-spiperone
Experimental: HEK293 EBNA cells were transiently transfected with expression plasmids encoding for the human D2 or D3 or for the human 5-HT2A receptor, respectively. […] The protein content of this homogenate was determined with the Bio-Rad (Bradford) Protein Assay (Biorad Laboratories GmbH, München, Germany) according to the instructions of the manufacturer using gamma globulin as the standard. […] The binding affinity (Ki) of the compounds was determined using radioligand binding. […]
pKi: −log10 of the molar value.
Listed compounds paired with reported pKi
measured property: pKi

INSERT INTO assay_data (compound, measured_property, endpoint_value) VALUES
  ('O=C(CC1COCCO1)N[C@H]1CC[C@H](CCN2CCN(c3cccc4c3OCO4)CC2)CC1 (stereo partly shown)', 'pKi', 6.70),
  ('CO[C@@H]1CC[C@@H](CC(=O)N[C@H]2CC[C@H](CCN3CCN(c4cccc5c4OCO5)CC3)CC2)C1', 'pKi', 6.74),
  ('N#CCC(=O)N[C@H]1CC[C@H](CCN2CCN(c3cccc4c3OCO4)CC2)CC1', 'pKi', 7.12),
  ('O=C(N[C@H]1CC[C@H](CCN2CCN(c3cccc4c3OCO4)CC2)CC1)c1ccccc1', 'pKi', 6.57),
  ('O=C(CC1CC1)N[C@H]1CC[C@H](CCN2CCN(c3cccc4c3OCO4)CC2)CC1', 'pKi', 6.85),
  ('O=C(N[C@H]1CC[C@H](CCN2CCN(c3cccc4c3OCO4)CC2)CC1)C1(O)CCC1', 'pKi', 7.07),
  ('COC(C)(C)C(=O)N[C@H]1CC[C@H](CCN2CCN(c3cccc4c3OCO4)CC2)CC1', 'pKi', 6.93);

* * *

Target: D2 receptor (Homo sapiens (Human), UniProt P14416)
Test: Radioligand binding ([3H]-spiperone) to cloned D2 receptor expressed in HEK-293 EBNA cells
Conditions: HEK293 EBNA membranes, 0.7 nM [3H]-spiperone
Method: HEK293 EBNA cells were transiently transfected with expression plasmids encoding for the human D2 or D3 or for the human 5-HT2A receptor, respectively. […] The protein content of this homogenate was determined with the Bio-Rad (Bradford) Protein Assay (Biorad Laboratories GmbH, München, Germany) according to the instructions of the manufacturer using gamma globulin as the standard. […] The binding affinity (Ki) of the compounds was determined using radioligand binding. […]
pKi: −log10 of the molar value.
Returns met if the recorded pKi is greater than or equal to 7, and not met otherwise.

INSERT INTO results (compound, subject_of_test, label_class) VALUES
  ('O=C(C[C@H]1CCCOC1)N[C@H]1CC[C@H](CCN2CCN(c3cccc4c3OCO4)CC2)CC1 (single isomer, unassigned)', 'D2 receptor (Homo sapiens (Human), UniProt P14416)', 'not met'),
  ('CN1CCN(CC(=O)N[C@H]2CC[C@H](CCN3CCN(c4cccc5c4OCO5)CC3)CC2)CC1', 'D2 receptor (Homo sapiens (Human), UniProt P14416)', 'met'),
  ('O=C(CO)N[C@H]1CC[C@H](CCN2CCN(c3cccc4c3OCO4)CC2)CC1', 'D2 receptor (Homo sapiens (Human), UniProt P14416)', 'not met');
